- System: Caco-2
- Experiment summary: drug sensitivity score (DSS) for viability; higher = more toxic; extreme values may be limits of the assay
- Settings: 72 h
Assay metric: drug sensitivity score

Use the examples below as a reference point.
{"Compound": "CCCCCCCCCCCCCCCC(=O)O[C@@H]1[C@@H](O)[C@@H](O)[C@@H]([C@H](NC(=O)[C@@H]2C[C@@H](CCC)CN2C)[C@H](C)Cl)O[C@@H]1SC [clindamycin-palmitate]", "Result": 0}
{"Compound": "C[C@H]1NCc2cc(-c3ccc4c(=O)c(C(=O)O)cn(C5CC5)c4c3OC(F)F)ccc21", "Result": 0}
{"Compound": "CN(C)CCCNC(=O)c1ccc(-c2cc(O)c3ncccc3c2)cc1", "Result": 1.4}
{"Compound": "O=C1c2cccc3c2[C@H](CCC3)CN1[C@@H]1CN2CCC1CC2", "Result": 0}
{"Compound": "CCCCC(CC)CCC(CC(C)C)OS(=O)(=O)O (stereo unspecified) [sodium-tetradecyl-sulfate]", "Result": 0}

[ask] # query: drug sensitivity score of entry CC(=O)Nc1ncc([N+](=O)[O-])s1 [nithiamide]
[reply] 0

[ask] # query: drug sensitivity score of entry O=C(NCc1ccccc1)OCCO [buramate]
[reply] 0

[ask] # query: drug sensitivity score of entry CN[C@@H](C)C(=O)N[C@H](C(=O)N1CCC[C@H]1C(=O)Nc1snnc1-c1ccccc1)C1CCCCC1
[reply] 0

[ask] # query: drug sensitivity score of entry Cc1c(S(=O)(=O)O)oc2c1C(=O)C(=O)c1c-2ccc2c1CCCC2(C)C [sodium-tanshinone-II-A-sulfonate]
[reply] 0

[ask] # query: drug sensitivity score of entry O=C(Cc1cccc(OC(F)(F)F)c1)Nc1ccc(CCCCc2nnc(NC(=O)Cc3ccccn3)s2)nn1
[reply] 0

----------
Catalogue of drug sensitivity score values
- Test system: U2OS
- Experiment summary: drug sensitivity score (DSS) for viability; higher = more toxic; extreme values may be limits of the assay
- Settings: 72 h
Keep it simple and answer with nothing but the number.

Use the examples below as a reference point.
{"Compound structure string": "C=CC(=O)Nc1ccc2ncnc(Nc3cccc(Br)c3)c2c1", "Measured number": 3}
{"Compound structure string": "COC(=O)[C@H](CC(C)C)NC(=O)c1ccc(NC[C@@H](N)CS)cc1-c1cccc2ccccc12", "Measured number": 2.9}
{"Compound structure string": "Brc1c(Br)c(Br)c2[nH]nnc2c1Br", "Measured number": 0}
{"Compound structure string": "COc1cc2c(cc1OC(C)C)[C@H](c1ccc(Cl)cc1)N(c1ccc(N(C)C[C@H]3CC[C@H](N4CCN(C)C(=O)C4)CC3)cc1)C(=O)C2", "Measured number": 3.8}
{"Compound structure string": "C=C[C@](C)(O)CC[C@@H]1[C@@]2(C)CCCC(C)(C)[C@@H]2CC[C@@]1(C)O", "Measured number": 0}
{"Compound structure string": "COC(=O)c1csc(C(=O)c2c[nH]c3ccccc23)n1", "Measured number": 0}
{"Compound structure string": "CC[n+]1c(-c2ccccc2)c2cc(N)ccc2c2ccc(N)cc21", "Measured number": 5.3}

Next compound, drug sensitivity score to be filled in.
[ask] # query: drug sensitivity score of entry CC(C)[C@H](O)C(=O)N[C@@H](C)C(=O)N[C@@H]1C(=O)N(C)CCc2ccccc21
[reply] 0

----------
- Tested on: Caco-2
- Experiment summary: drug sensitivity score (DSS) for viability; higher = more toxic; extreme values may be limits of the assay
- Settings: 72 h
Catalogue of drug sensitivity score values
Keep it simple and answer with nothing but the number.

Use the examples below as a reference point.
{"Molecule": "O=C(Nc1cnccc1Cl)N1CCN(Cc2ccc3c(c2)OC(F)(F)O3)CC1", "drug sensitivity score": 1}
{"Molecule": "CCCCc1nc(Cl)c(CO)n1Cc1ccc(-c2ccccc2-c2nnn[nH]2)cc1 [losartan]", "drug sensitivity score": 0}
{"Molecule": "CC(C)[C@H](O)C(=O)N[C@@H](C)C(=O)N[C@@H]1C(=O)N(C)CCc2ccccc21 [semagacestat]", "drug sensitivity score": 0}

[ask] # query: drug sensitivity score of entry CC[n+]1c(-c2ccccc2)c2cc(N)ccc2c2ccc(N)cc21 [homidium]
[reply] 10.7

[ask] # query: drug sensitivity score of entry Cc1ncc(CSSCc2cnc(C)c(O)c2CO)c(CO)c1O [pyritinol]
[reply] 0

[ask] # query: drug sensitivity score of entry COc1c2occc2c(OC)c2c(=O)cc(C)oc12 [khellin]
[reply] 0

[ask] # query: drug sensitivity score of entry CN1CCc2nc(C(=O)N[C@@H]3C[C@@H](C(=O)N(C)C)CC[C@@H]3NC(=O)C(=O)Nc3ccc(Cl)cn3)sc2C1 [edoxaban]
[reply] 0

[ask] # query: drug sensitivity score of entry C=C1CC[C@H](O)C/C1=C/C=C1\CCC[C@]2(C)[C@@H]([C@H](C)CCCC(C)C)CC[C@@H]12 [cholecalciferol]
[reply] 0

----------
- Test system: Vero E6
- Experiment summary: cell viability relative to DMSO; higher = less toxic
- Settings: 72 h; 100 nM
Assay metric: cell viability (%)
Quick note: give the figure in %, leave out the unit.

Use the examples below as a reference point.
{"Compound": "C[C@@H](c1ncncc1F)[C@](O)(Cn1cncn1)c1ccc(F)cc1F [voriconazole]", "Measured target": "Vero E6", "Assay metric": "cell viability", "Measured number": 97.8}
{"Compound": "Nc1cc(Cl)c(N=C2NCCN2)c(Cl)c1 [apraclonidine]", "Measured target": "Vero E6", "Assay metric": "cell viability", "Measured number": 101}
{"Compound": "CN1CCOC(c2ccccc2)c2ccccc2C1 (stereo unspecified) [nefopam]", "Measured target": "Vero E6", "Assay metric": "cell viability", "Measured number": 98.8}
{"Compound": "C[N@+]1(CC2CC2)CC[C@]23c4c5ccc(O)c4O[C@H]2C(=O)CC[C@@]3(O)[C@H]1C5 [methylnaltrexone]", "Measured target": "Vero E6", "Assay metric": "cell viability", "Measured number": 96.9}
{"Compound": "Clc1ccc(C(Cn2ccnc2)OCc2ccc(Sc3ccccc3)cc2)c(Cl)c1 (stereo unspecified) [fenticonazole]", "Measured target": "Vero E6", "Assay metric": "cell viability", "Measured number": 106}

[ask] // map NCCS [cysteamine] to recorded cell viability (system: Vero E6)
[reply] 99.8

----------
- Test system: Calu-3
- Experiment summary: cell viability relative to DMSO; higher = less toxic
- Settings: 72 h; 10 nM
Catalogue of cell viability values
Quick note: give the figure in %, leave out the unit.

Use the examples below as a reference point.
{"Compound": "CC(C)Cc1ccc(C(C)C(=O)O)cc1 (centres undefined) [ibuprofen]", "cell viability, %": 98.9}
{"Compound": "O=C1C=Cc2cc(Br)ccc2C1=O [bonaphthone]", "cell viability, %": 104}
{"Compound": "O=C1Cc2c([nH]c3ccc(Br)cc23)-c2ncccc2N1 [1-azakenpaullone]", "cell viability, %": 94.6}
{"Compound": "CC[C@]12CCCN3CCc4c(n(c5ccccc45)C(=O)C1)[C@@H]32 [vinburnine]", "cell viability, %": 97.4}
{"Compound": "CCCCc1nc(Cl)c(CO)n1Cc1ccc(-c2ccccc2-c2nnn[nH]2)cc1 [losartan]", "cell viability, %": 84.4}
{"Compound": "CN1CCN(CCc2ccc(Cl)c(Cl)c2)CC1 [BD-1063]", "cell viability, %": 96.2}
{"Compound": "CCOC(=O)[C@H](CCc1ccccc1)N[C@@H](C)C(=O)N1Cc2ccccc2C[C@H]1C(=O)O [quinapril]", "cell viability, %": 102}
{"Compound": "CC1(C)Oc2ccc(C#N)cc2[C@H](N(Cc2ncc[nH]2)c2ccc(Cl)cc2)[C@H]1O", "cell viability, %": 104}
{"Compound": "CCCN1CC(NS(=O)(=O)N(CC)CC)CC2Cc3c(O)cccc3CC21 (centres undefined) [quinagolide]", "cell viability, %": 110}
{"Compound": "Cc1ccc(-c2ncc(Cl)cc2-c2ccc(S(C)(=O)=O)cc2)cn1 [etoricoxib]", "cell viability, %": 99}

[ask] # query: cell viability of entry Cc1cc(NC(=O)C(c2ccccc2)N2CCCc3ccccc32)no1 (centres undefined) [CIM-0216]
[reply] 98.5

[ask] # query: cell viability of entry CN1C(C(=O)Nc2ccccn2)=C(O)c2sc(Cl)cc2S1(=O)=O [lornoxicam]
[reply] 100

----------
Catalogue of cell viability values
- Test system: Caco-2
- Experiment summary: cell viability relative to DMSO; higher = less toxic
- Settings: 72 h; 10 nM
Quick note: give the figure in %, leave out the unit.

{"Compound": "Nc1ccc(F)cc1NC(=O)c1ccc(CNC(=O)/C=C/c2cccnc2)cc1 [chidamide]", "cell viability (%)": 104}

[ask] // map O=c1cc[nH]c(=O)[nH]1 to recorded cell viability (system: Caco-2)
[reply] 90.6

[ask] // map O=C(O[C@H]1C[C@H]2CC[C@@H](C1)[N+]21CCCC1)C(O)(c1ccccc1)c1ccccc1 to recorded cell viability (system: Caco-2)
[reply] 97.1

[ask] // map O=C1c2cccc3c2[C@H](CCC3)CN1[C@@H]1CN2CCC1CC2 to recorded cell viability (system: Caco-2)
[reply] 97.5

[ask] // map Cc1cnc(-c2ccccc2C(C)C)nc1NCc1ccc(-n2ccnn2)cc1 to recorded cell viability (system: Caco-2)
[reply] 101
